Hey, just so you know, these numbers are from patent US20240092758A1.

- SYSTEM UNDER TEST: TYK2 (Homo sapiens (Human), UniProt P29597)
- Sequence (P29597 whole entry): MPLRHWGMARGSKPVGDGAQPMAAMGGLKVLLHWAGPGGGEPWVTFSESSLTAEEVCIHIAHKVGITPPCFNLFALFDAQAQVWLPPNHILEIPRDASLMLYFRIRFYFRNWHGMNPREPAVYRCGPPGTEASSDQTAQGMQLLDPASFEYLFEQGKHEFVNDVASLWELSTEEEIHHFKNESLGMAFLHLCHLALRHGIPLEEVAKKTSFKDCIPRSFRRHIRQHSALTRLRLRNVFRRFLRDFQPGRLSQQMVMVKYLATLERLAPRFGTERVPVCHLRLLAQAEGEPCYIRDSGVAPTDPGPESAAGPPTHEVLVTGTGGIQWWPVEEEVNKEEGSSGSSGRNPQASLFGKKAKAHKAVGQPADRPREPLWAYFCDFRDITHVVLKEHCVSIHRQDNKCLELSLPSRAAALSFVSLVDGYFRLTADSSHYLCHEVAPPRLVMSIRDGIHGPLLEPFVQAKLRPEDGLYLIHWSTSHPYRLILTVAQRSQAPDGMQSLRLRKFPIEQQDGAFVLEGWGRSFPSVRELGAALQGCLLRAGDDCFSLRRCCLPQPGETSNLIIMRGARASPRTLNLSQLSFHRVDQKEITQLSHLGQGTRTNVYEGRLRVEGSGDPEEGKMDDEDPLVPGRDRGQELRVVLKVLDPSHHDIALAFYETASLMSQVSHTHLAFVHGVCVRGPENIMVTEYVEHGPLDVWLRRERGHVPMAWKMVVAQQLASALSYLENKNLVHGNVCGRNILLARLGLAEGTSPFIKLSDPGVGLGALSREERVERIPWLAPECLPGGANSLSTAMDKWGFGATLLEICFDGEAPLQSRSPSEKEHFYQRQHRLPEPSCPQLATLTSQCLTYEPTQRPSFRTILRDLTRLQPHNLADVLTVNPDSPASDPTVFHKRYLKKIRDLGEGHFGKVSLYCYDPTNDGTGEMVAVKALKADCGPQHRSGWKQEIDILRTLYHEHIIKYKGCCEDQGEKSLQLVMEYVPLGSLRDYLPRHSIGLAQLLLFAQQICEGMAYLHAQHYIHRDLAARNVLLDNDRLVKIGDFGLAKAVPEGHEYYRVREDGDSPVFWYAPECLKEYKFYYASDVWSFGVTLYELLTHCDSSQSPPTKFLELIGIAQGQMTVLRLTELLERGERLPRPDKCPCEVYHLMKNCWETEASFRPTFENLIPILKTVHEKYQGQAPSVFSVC
- ASSAY TEXT: Biochemical JAK kinase assay (LanthaScreen), Tyk2
- EXPERIMENTAL PARAMETERS: read-out: Tyk2 pKi (converted)
MEASURED ENDPOINT: Ki

CCc1cc(O)ccc1-c1ccc2c(-c3nc(C4=CCN(CCO)C4)c[nH]3)n[nH]c2c1 [Example 50] = 0.1 to 1 nM
CCc1cc(O)ccc1-c1ccc2c(-c3nc(C4=CCN(CCN)CC4)c[nH]3)n[nH]c2c1F [Example 187] = 1 to 10 nM
CCc1cc(O)ccc1-c1ccc2c(-c3nc(C4=CCCN(C5COC5)C4)c[nH]3)n[nH]c2c1F [Example 70] = 10 to 100 nM

Next up:
The compound listed as CCc1cc(O)ccc1-c1ccc2c(-c3nc(C4=CCCN(C[C@@H]5COCCN5)C4)c[nH]3)n[nH]c2c1F [Example 196] has a reported Ki of 10 to 100 nM

====

- Test system: IL-13 induced STAT6 phosphorylation in BEAS-2B human lung epithelial cells
- ASSAY TEXT: Cellular JAKI potency assay (BEAS-2B)
- Type: cell-based
- EXPERIMENTAL PARAMETERS: Homo sapiens, BEAS-2B, BEAS-2B cells, read-out: BEAS2B pIC50 (converted)
MEASURED ENDPOINT: IC50

CCc1cc(O)ccc1-c1ccc2c(-c3nc(C4=C[C@H](CC(=O)N(C)C)NC4)c[nH]3)n[nH]c2c1F [Example 255] = 10 to 31.6 nM
CCc1cc(O)ccc1-c1ccc2c(-c3nc(C4=C(C)CCNC4)c[nH]3)n[nH]c2c1 [Example 232] = 3.16 to 10 nM
CCc1cc(O)ccc1-c1ccc2c(-c3nc(C4=CCN(C5CCN(C)CC5)CC4)c[nH]3)n[nH]c2c1F [Example 185] = 10 to 31.6 nM
CCc1cc(O)ccc1-c1ccc2c(-c3nc(C4=C[C@H](CO)NCC4)c[nH]3)n[nH]c2c1F [Example 348] = 31.6 to 100 nM

The compound listed as CCc1cc(O)ccc1-c1ccc2c(-c3nc(C4=CCN(C5CCN(C)C5)CC4)c[nH]3)n[nH]c2c1F (stereo not drawn) [Example 208] has a reported IC50 of 10 to 31.6 nM

The compound listed as CCc1cc(O)ccc1-c1ccc2c(-c3nc(C4=CCN(C(C)CO)CC4)c[nH]3)n[nH]c2c1F (stereo not drawn) [Compound 13] has a reported IC50 of 3.16 to 10 nM

The compound listed as CCc1cc(O)ccc1-c1ccc2c(-c3nc(C4=CCNC(C)(C)C4)c[nH]3)n[nH]c2c1F [Example 377] has a reported IC50 of 31.6 to 100 nM

The compound listed as CCc1cc(O)ccc1-c1ccc2c(-c3nc(C4=CCCN(CCCO)C4)c[nH]3)n[nH]c2c1F [Example 45] has a reported IC50 of 3.16 to 10 nM

The compound listed as CCc1cc(O)ccc1-c1ccc2c(-c3nc(C4=CCN(C(=O)[C@@H](N)C(C)(C)O)CC4)c[nH]3)n[nH]c2c1 [Example 153] has a reported IC50 of 31.6 to 100 nM

The compound listed as CCc1cc(O)ccc1-c1ccc2c(-c3nc(C4=CCCN(C)C4)c[nH]3)n[nH]c2c1F [Example 29] has a reported IC50 of 3.16 to 10 nM

The compound listed as CCc1cc(O)ccc1-c1ccc2c(-c3nc(C4=CC(C)NC4)c[nH]3)n[nH]c2c1 (stereo not drawn) [Example 238] has a reported IC50 of 3.16 to 10 nM

The compound listed as CCc1cc(O)ccc1-c1ccc2c(-c3nc(C4=C(C(=O)OC(C)C)CNCC4)c[nH]3)n[nH]c2c1F [Example 325] has a reported IC50 of 10 to 31.6 nM

The compound listed as Oc1ccc(-c2ccc3c(-c4nc(C5=CCNCC5)c[nH]4)n[nH]c3c2)c(CC(F)(F)F)c1 [Example 369] has a reported IC50 of 31.6 to 100 nM
